# SYSTEM NAME: HCV NS3 protease domain (Hepatitis C virus genotype 1b, UniProt Q9WMX2)
# Construct: The first 181 amino acids of NS3 (residues 1027-1207 of the viral polyprotein); hexa-histidine (C); made in house; host or cells: E. coli BL21/DE3 pLysS
# Sequence (Q9WMX2 1027-1207, other chains not shown): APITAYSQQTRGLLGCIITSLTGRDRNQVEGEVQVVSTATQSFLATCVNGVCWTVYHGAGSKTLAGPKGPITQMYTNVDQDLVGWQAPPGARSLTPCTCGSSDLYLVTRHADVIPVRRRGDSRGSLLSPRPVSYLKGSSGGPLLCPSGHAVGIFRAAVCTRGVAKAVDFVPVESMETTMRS
# PROTOCOL DESCRIPTION: biochemical
# CONDITIONS: Enzyme Assay 1 (HCV NS3 Protease Domain Peptide Cleavage Assay) activity, apparent Ki class
pKi: −log10 of the molar value.
QUANTITY MEASURED: pKi

{"MOLECULE": "CCC[C@H](NC(=O)[C@@H]1C[C@]2(CC(C3CCCC3)=NO2)CN1C(=O)[C@@H](NC(=O)O[C@H]1CCOC1)C(C)(C)C)C(=O)C(=O)NC1CC1 [Compound 70]", "QUANTITY MEASURED": "pKi", "VALUE": "< 6.30"}
{"MOLECULE": "CCC[C@H](NC(=O)[C@@H]1C[C@]2(CC(c3cccc(Cl)c3)=NO2)CN1C(=O)[C@@H](NC(=O)NCc1cccnc1)C(C)(C)C)C(=O)C(=O)NC1CC1 [Compound 497]", "QUANTITY MEASURED": "pKi", "VALUE": "6.30 to 7.00"}
{"MOLECULE": "CCC[C@H](NC(=O)[C@@H]1C[C@]2(CC(c3ccc(OC)cc3OC)=NO2)CN1C(=O)[C@@H](NC(=O)O[C@H]1CCOC1)C(C)(C)C)C(=O)C(=O)NC1CC1 [Compound 516]", "QUANTITY MEASURED": "pKi", "VALUE": "< 6.30"}
{"MOLECULE": "CCC[C@H](NC(=O)[C@@H]1C[C@]2(CC(c3cccc(Cl)c3)=NO2)CN1C(=O)[C@@H](NC(=O)Cc1ccccc1C)C(C)(C)C)C(=O)C(=O)NC1CC1 [Compound 431]", "QUANTITY MEASURED": "pKi", "VALUE": "6.30 to 7.00"}
{"MOLECULE": "CN(C)C(=O)C(=O)[C@H](CC1CCC1)NC(=O)[C@@H]1C[C@]2(CC(c3cccc(Cl)c3)=NO2)CN1C(=O)[C@@H](NC(=O)CC1CCCCC1)C(C)(C)C [Compound 63]", "QUANTITY MEASURED": "pKi", "VALUE": "< 6.30"}
{"MOLECULE": "CCC[C@H](NC(=O)[C@@H]1C[C@]2(CC(c3cccc(Cl)c3)=NO2)CN1C(=O)[C@@H](NC(=O)CC1C[C@@H](C)O[C@@H](C)C1)C(C)(C)C)C(=O)C(=O)NC1CC1 (some centres unmarked) [Compound 442]", "QUANTITY MEASURED": "pKi", "VALUE": "6.30 to 7.00"}

Query: Using known records, supply pKi for CCC[C@H](NC(=O)[C@@H]1C[C@]2(CC(c3ccsc3)=NO2)CN1C(=O)[C@@H](NC(=O)CC1CCCCC1)C(C)(C)C)C(=O)C(=O)NC1CC1 [Compound 168]
Response: 6.30 to 7.00

Query: Annotate the molecule CCC[C@H](NC(=O)[C@@H]1C[C@]2(CC(c3cccc(Cl)c3)=NO2)CN1C(=O)[C@@H](NC(=O)CC1CCCCC1)C(C)(C)C)C(=O)C(=O)N[C@@H](C)C(O)(c1ccccc1)c1ccccc1 [Compound 507] with its measured pKi.
Response: < 6.30

Query: Indicate its recorded pKi; the molecule in question is CCC[C@H](NC(=O)[C@@H]1C[C@]2(CC(c3cccc(Cl)c3)=NO2)CN1C(=O)[C@H](Cc1ccccc1)NC(=O)OCC)C(=O)C(=O)NC1CC1 [Compound 427]
Response: < 6.30

Query: Please report the measured pKi for CCC[C@H](NC(=O)[C@@H]1C[C@]2(CC(c3ccc4c(c3)OCO4)=NO2)CN1C(=O)[C@@H](NC(C)=O)C(C)(C)C)C(=O)C(=O)NC1CC1 [Compound 570]
Response: 6.30 to 7.00

Query: Given CCC[C@H](NC(=O)[C@@H]1C[C@]2(CC(c3cccc(Cl)c3)=NO2)CN1C(=O)[C@@H](NC(=O)CC1CCCCC1)C(C)(C)C)C(=O)C(=O)NCCc1cccnc1 [Compound 447] , respond with its pKi.
Response: < 6.30
